meta.source: ChEMBL document CHEMBL3991601

Biological target: LIM domain kinase 2 (Homo sapiens, UniProt P53671); further: in the data inactive means no Kd found up to 30 µM
Sequence (P53671 whole entry, the tested form may be a part): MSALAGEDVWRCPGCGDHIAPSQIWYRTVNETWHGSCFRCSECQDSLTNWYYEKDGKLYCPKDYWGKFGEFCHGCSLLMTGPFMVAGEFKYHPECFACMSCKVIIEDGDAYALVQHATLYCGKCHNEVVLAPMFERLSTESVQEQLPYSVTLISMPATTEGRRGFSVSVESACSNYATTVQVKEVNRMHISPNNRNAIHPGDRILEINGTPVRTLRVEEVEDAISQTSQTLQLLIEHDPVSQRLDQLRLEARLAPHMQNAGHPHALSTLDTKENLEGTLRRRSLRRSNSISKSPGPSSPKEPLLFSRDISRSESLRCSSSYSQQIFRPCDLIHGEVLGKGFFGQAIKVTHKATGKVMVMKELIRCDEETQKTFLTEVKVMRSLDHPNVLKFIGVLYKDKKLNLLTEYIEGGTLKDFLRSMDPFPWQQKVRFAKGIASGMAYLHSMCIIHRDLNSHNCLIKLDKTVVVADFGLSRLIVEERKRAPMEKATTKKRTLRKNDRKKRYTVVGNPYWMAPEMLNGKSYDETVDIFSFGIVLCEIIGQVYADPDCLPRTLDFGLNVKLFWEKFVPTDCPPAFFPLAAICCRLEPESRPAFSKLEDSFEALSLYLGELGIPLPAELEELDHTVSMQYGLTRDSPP
Active and inactive are the calls of the source.
value.kind: Kd

chemical.string | study.target | Kd
C[C@@H]1COC(Nc2ccc3ncnc(Nc4ccc(OCc5nccs5)c(Cl)c4)c3c2)=N1 | LIM domain kinase 2 (Homo sapiens, UniProt P53671) | > 30 µM (inactive)
C=CCN(/C=C1/C(=O)O[C@H](COC)[C@@]2(C)C1=C(O)C(=O)C1=C2[C@H](OC(C)=O)C[C@]2(C)C(=O)CC[C@@H]12)CC=C | LIM domain kinase 2 (Homo sapiens, UniProt P53671) | > 30 µM (inactive)
C=CCn1c(=O)c2cnc(Nc3ccc(N4CCN(C)CC4)cc3)nc2n1-c1cccc(C(C)(C)O)n1 | LIM domain kinase 2 (Homo sapiens, UniProt P53671) | > 30 µM (inactive)

Bench note, LIM domain kinase 2 (Homo sapiens, UniProt P53671): FC(F)(F)c1ccc(CNc2ccc(Cc3c[nH]c4ncc(Cl)cc34)cn2)cn1 , Kd reads > 30 µM (inactive)

Bench note, LIM domain kinase 2 (Homo sapiens, UniProt P53671): CNC(=O)c1cc(COc2nnc(Nc3ccc(Cl)cc3)c3ccoc23)ccn1 , Kd reads > 30 µM (inactive)

Bench note, LIM domain kinase 2 (Homo sapiens, UniProt P53671): CNC(=O)c1cccc(-c2ccc3c(N4CCOC[C@@H]4C)nc(N4CCOC[C@@H]4C)nc3n2)c1 , Kd reads > 30 µM (inactive)

Bench note, LIM domain kinase 2 (Homo sapiens, UniProt P53671): C=CC(=O)Nc1cccc(Nc2nc(Nc3ccc(N4CCN(C(C)=O)CC4)cc3OC)ncc2C(F)(F)F)c1 , Kd reads > 30 µM (inactive)

###

Biological target: Serine/threonine-protein kinase PAK 4 (Homo sapiens, UniProt O96013); further: in the data inactive means no Kd found up to 30 µM
Sequence (O96013 whole entry): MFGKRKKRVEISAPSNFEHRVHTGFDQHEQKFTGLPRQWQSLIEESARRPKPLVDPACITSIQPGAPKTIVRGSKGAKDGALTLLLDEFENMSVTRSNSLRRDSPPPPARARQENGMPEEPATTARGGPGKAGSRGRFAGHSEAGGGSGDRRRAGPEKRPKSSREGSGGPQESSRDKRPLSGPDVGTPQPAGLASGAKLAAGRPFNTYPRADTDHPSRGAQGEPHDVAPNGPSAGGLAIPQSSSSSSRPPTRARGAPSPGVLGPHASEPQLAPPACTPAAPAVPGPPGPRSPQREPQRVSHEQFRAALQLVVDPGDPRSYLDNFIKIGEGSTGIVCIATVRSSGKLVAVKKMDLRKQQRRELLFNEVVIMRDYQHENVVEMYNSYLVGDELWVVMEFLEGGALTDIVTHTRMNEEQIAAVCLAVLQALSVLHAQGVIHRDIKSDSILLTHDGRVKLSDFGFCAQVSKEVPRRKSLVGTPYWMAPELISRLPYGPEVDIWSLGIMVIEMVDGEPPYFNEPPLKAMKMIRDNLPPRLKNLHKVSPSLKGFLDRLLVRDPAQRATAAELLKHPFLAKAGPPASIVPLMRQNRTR
Activity calls are given as the source filed them.
Tick one outcome: active, inactive

Solved entries (count: 5):
compound | study.target | assigned.category
CCN1CCN(Cc2ccc(Nc3ncc(F)c(-c4cc(F)c5nc(C)n(C(C)C)c5c4)n3)nc2)CC1 | Serine/threonine-protein kinase PAK 4 (Homo sapiens, UniProt O96013) | inactive
S=C(NCc1ccc2c(c1)OCO2)N1CCN(c2ncnc3c2oc2ccccc23)CC1 | Serine/threonine-protein kinase PAK 4 (Homo sapiens, UniProt O96013) | inactive
COc1cccc2cc(-c3nc([C@H]4CC[C@H](C(=O)O)CC4)n4ncnc(N)c34)[nH]c12 | Serine/threonine-protein kinase PAK 4 (Homo sapiens, UniProt O96013) | inactive
c1cc(OCCN2CCCCC2)cc(-c2n[nH]c3ccc(-c4nc[nH]n4)cc23)c1 | Serine/threonine-protein kinase PAK 4 (Homo sapiens, UniProt O96013) | inactive
CC(C)(O)CC(=O)NCCn1ccc2ncnc(Nc3ccc(Oc4cccc(C(F)(F)F)c4)c(Cl)c3)c21 | Serine/threonine-protein kinase PAK 4 (Homo sapiens, UniProt O96013) | inactive

Query: How was Cc1cc(-c2cc(OC(=O)c3ccccc3)ccc2Cl)cc2nnc(Nc3ccc(OCCN4CCCC4)cc3)nc12 classified in this test?
Response: inactive

Query: How was COc1cc(F)c(F)c(Nc2ccc(I)cc2F)c1NS(=O)(=O)C1(C[C@H](O)CO)CC1 classified in this test?
Response: inactive

Query: How was COc1cc2ncnc(Nc3ccc(O)cc3)c2cc1OC classified in this test?
Response: inactive

Query: How was COc1cc2ncnc3c2cc1OCCCCCN(C)Cc1ccc(Br)cc1N3 classified in this test?
Response: inactive

Query: How was Cn1c(=O)c(F)c(Nc2ccc(I)cc2F)c2c(=O)n(C[C@@H](O)CO)cnc21 classified in this test?
Response: inactive

Query: How was CC[C@@](C)(Nc1ccnc(-c2c[nH]c3ncccc23)n1)C(=O)NCC(F)(F)F classified in this test?
Response: inactive

Query: How was O=C(NC[C@H](O)CO)c1ccncc1Nc1ccc(I)cc1F classified in this test?
Response: inactive

Query: How was NC[C@@](O)(c1ccc(Cl)cc1)c1ccc(-c2cn[nH]c2)cc1 classified in this test?
Response: inactive

Query: How was COc1cccc(Nc2ncnn3ccc(CN4CC[C@@H](N)[C@H](O)C4)c23)c1 classified in this test?
Response: inactive

Query: How was N#CCNC(=O)c1ccc(-c2ccnc(Nc3ccc(N4CCOCC4)cc3)n2)cc1 classified in this test?
Response: inactive

Query: How was C#Cc1cccc(Nc2ncnc3cc4c(cc23)OCCOCCOCCO4)c1 classified in this test?
Response: inactive

Query: How was CCc1cc2c(cc1N1CCC(N3CCOCC3)CC1)C(C)(C)c1[nH]c3cc(C#N)ccc3c1C2=O classified in this test?
Response: inactive

Query: How was O=C(Nc1ccc(OC(F)(F)F)cc1)c1sccc1NCc1ccnc2ccccc12 classified in this test?
Response: inactive

Query: How was COc1cc(Nc2ncc(F)c(Nc3ccc4c(n3)N(COP(=O)(O)O)C(=O)C(C)(C)O4)n2)cc(OC)c1OC classified in this test?
Response: inactive

Query: How was O=S(=O)(c1cccc2c(O)nccc12)N1CCCNCC1 [HYDROXYFASUDIL] classified in this test?
Response: inactive

Query: How was Cc1cc(Nc2nc(N[C@@H](C)c3ncc(F)cn3)ncc2Cl)n[nH]1 classified in this test?
Response: active

Query: How was FC(F)(F)c1ccc(CNc2ccc(Cc3c[nH]c4ncc(Cl)cc34)cn2)cn1 classified in this test?
Response: inactive

###

Molecular target: Non-receptor tyrosine-protein kinase TYK2 (Homo sapiens, UniProt P29597); further: in the data inactive means no Kd found up to 30 µM
Sequence (P29597 whole entry): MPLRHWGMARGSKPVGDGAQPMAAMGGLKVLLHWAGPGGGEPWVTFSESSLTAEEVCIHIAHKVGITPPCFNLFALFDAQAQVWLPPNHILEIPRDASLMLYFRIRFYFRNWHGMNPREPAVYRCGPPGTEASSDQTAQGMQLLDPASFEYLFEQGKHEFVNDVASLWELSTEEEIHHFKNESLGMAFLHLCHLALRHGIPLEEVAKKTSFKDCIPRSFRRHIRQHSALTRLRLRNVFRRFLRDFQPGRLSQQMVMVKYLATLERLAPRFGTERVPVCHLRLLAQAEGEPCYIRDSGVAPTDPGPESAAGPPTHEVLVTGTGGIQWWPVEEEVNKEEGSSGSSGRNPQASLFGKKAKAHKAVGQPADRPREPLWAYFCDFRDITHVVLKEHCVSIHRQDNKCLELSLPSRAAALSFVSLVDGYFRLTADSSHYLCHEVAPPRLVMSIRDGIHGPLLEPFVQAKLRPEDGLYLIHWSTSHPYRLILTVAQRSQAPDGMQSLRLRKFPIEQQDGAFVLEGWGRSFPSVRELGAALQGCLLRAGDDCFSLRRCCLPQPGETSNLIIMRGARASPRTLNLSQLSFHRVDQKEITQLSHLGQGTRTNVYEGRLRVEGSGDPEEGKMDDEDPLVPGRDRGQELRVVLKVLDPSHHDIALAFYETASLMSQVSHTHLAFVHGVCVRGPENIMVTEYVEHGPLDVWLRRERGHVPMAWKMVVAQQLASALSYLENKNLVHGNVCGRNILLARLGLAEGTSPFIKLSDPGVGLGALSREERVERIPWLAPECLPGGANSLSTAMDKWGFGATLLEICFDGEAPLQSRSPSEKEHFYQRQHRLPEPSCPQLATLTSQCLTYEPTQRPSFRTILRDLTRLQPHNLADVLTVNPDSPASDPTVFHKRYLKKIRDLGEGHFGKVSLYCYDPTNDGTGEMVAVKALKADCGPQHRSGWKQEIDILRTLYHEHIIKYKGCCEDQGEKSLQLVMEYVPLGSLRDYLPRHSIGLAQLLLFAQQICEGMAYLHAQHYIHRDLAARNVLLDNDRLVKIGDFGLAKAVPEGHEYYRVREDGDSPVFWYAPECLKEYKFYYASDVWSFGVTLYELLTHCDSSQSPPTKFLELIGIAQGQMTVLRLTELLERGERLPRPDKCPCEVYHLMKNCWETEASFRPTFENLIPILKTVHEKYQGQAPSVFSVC
The source made the active and inactive calls.
Tick one outcome: active, inactive

Solved entries (count: 2):
compound | assigned.category
COc1cc2nccc(Oc3ccc(NC(=O)C4(C(=O)Nc5ccc(F)cc5)CC4)cc3)c2cc1OC [CABOZANTINIB] | inactive
CCN(CCCOc1ccc2c(Nc3cc(CC(=O)Nc4cccc(F)c4)n[nH]3)ncnc2c1)CCOP(=O)(O)O | inactive

Query: How was C#Cc1cccc(Nc2ncnc3cc4c(cc23)OCCOCCOCCO4)c1 classified in this test?
Response: inactive

Query: How was NC[C@@](O)(c1ccc(Cl)cc1)c1ccc(-c2cn[nH]c2)cc1 classified in this test?
Response: inactive

Query: How was COc1ccc(-c2ccc3ncc4c(c3c2)n(-c2ccc(N3CCNCC3)c(C(F)(F)F)c2)c(=O)n4C)cn1 [BGT-226 FREE BASE] classified in this test?
Response: inactive

Query: How was C=CCn1c(=O)c2cnc(Nc3ccc(N4CCN(C)CC4)cc3)nc2n1-c1cccc(C(C)(C)O)n1 classified in this test?
Response: inactive

Query: How was NC(=O)c1ccc(N(C(N)=O)c2c(F)cccc2F)nc1-c1ccc(F)cc1F classified in this test?
Response: inactive

Query: How was Cn1c(=O)c(F)c(Nc2ccc(I)cc2F)c2c(=O)n(C[C@@H](O)CO)cnc21 classified in this test?
Response: inactive

Query: How was Cc1cc(-c2cc(OC(=O)c3ccccc3)ccc2Cl)cc2nnc(Nc3ccc(OCCN4CCCC4)cc3)nc12 classified in this test?
Response: inactive

Query: How was O=C(O)c1ccc2c(c1)nc(Nc1cccc(Cl)c1)c1ccncc12 classified in this test?
Response: active

Query: How was C=CC(=O)Nc1cccc(Nc2nc(Nc3ccc(N4CCN(C(C)=O)CC4)cc3OC)ncc2C(F)(F)F)c1 classified in this test?
Response: inactive

Query: How was COc1ccc2c(OCc3nnc4ccc(-c5ccccc5)nn34)ccnc2c1 classified in this test?
Response: inactive

Query: How was Cn1c(=O)n(-c2ccc(C(C)(C)C#N)cc2)c2c3cc(-c4cnc5ccccc5c4)ccc3ncc21 classified in this test?
Response: inactive

Query: How was CCc1nc(C(N)=O)c(Nc2ccc(N3CCC(N4CCN(C)CC4)CC3)c(OC)c2)nc1NC1CCOCC1 classified in this test?
Response: inactive

Query: How was CN1CCN(c2nc(C3=C(c4c[nH]c5ccccc45)C(=O)NC3=O)c3ccccc3n2)CC1 classified in this test?
Response: inactive

Query: How was COc1cccc(Nc2ncnn3ccc(CN4CC[C@@H](N)[C@H](O)C4)c23)c1 classified in this test?
Response: inactive

###

Target: MAP/microtubule affinity-regulating kinase 3 (Homo sapiens); further: in the data inactive means no Kd found up to 30 µM
Sequence (P27448 whole entry): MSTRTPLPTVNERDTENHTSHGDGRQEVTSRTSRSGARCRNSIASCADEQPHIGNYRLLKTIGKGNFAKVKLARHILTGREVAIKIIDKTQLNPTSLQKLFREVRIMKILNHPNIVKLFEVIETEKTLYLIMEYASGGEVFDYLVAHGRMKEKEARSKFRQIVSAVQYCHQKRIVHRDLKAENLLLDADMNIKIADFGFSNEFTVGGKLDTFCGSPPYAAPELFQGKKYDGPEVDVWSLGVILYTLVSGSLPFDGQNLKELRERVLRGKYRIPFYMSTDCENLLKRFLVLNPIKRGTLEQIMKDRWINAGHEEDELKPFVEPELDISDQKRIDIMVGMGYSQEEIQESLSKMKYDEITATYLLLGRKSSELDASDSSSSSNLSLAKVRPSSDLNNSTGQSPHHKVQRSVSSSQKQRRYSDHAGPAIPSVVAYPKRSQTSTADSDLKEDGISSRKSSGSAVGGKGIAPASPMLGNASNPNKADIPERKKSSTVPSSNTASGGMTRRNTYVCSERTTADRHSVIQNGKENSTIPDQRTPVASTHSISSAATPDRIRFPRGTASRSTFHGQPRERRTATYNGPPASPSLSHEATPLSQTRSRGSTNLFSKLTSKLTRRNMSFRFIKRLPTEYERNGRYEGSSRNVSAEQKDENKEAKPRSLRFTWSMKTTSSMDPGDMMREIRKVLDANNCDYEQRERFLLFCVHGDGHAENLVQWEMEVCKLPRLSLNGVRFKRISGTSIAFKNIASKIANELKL
Activity calls are given as the source filed them.
value.kind: Kd

// field: Kd; key: COc1cc2ncnc(Nc3ccc(O)cc3)c2cc1OC ; value = > 30 µM (inactive)

// field: Kd; key: C=CCN(/C=C1/C(=O)O[C@H](COC)[C@@]2(C)C1=C(O)C(=O)C1=C2[C@H](OC(C)=O)C[C@]2(C)C(=O)CC[C@@H]12)CC=C ; value = > 30 µM (inactive)

// field: Kd; key: Cc1cc(-c2cc(OC(=O)c3ccccc3)ccc2Cl)cc2nnc(Nc3ccc(OCCN4CCCC4)cc3)nc12 ; value = > 30 µM (inactive)
